target: telomerase (Homo sapiens); test: Telomerase repeat processivity IC50: modified dNTP titrated into reactions with all four natural dNTPs; assay type: biochemical; parameters: made in house; anti-FLAG immunopurification, eluted with 3xFLAG peptide; conditions: repeat processivity R 1/2, 8-oxo-dATP; mean of N1-N3; read-out: Mean IC50
Sequence (O14746 whole entry): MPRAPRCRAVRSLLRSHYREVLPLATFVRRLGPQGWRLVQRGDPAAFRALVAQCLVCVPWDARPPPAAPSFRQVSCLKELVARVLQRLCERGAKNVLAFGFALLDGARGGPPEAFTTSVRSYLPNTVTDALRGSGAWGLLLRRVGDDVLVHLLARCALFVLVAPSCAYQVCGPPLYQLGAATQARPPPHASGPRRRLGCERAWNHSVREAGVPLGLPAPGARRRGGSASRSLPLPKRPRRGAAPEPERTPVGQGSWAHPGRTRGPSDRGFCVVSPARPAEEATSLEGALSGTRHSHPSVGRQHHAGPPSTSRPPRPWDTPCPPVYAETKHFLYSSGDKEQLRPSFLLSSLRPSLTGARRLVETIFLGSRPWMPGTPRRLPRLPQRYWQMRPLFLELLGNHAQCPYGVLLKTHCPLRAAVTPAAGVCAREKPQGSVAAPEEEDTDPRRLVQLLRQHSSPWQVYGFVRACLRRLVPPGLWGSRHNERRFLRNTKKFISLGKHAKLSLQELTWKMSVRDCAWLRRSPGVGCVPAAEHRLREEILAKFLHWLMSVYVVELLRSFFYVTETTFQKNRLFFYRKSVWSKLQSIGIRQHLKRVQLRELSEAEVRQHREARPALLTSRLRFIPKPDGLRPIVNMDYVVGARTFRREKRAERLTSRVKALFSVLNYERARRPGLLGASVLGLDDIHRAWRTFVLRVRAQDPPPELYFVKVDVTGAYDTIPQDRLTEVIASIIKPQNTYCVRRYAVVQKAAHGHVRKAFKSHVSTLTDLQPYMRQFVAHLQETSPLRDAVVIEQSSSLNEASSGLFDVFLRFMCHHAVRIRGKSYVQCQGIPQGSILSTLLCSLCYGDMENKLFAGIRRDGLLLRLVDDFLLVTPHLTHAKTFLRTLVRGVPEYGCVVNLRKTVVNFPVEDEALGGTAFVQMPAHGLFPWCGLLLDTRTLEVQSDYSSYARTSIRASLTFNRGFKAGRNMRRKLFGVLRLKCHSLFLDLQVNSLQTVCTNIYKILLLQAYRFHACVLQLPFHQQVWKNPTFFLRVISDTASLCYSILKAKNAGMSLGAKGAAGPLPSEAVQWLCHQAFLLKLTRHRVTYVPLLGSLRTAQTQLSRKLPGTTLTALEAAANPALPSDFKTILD
Attribute Measured: pIC50
pIC50 (log units): -log10 of the concentration in mol/L.

Q: Tell me pIC50 reported for Nc1ncnc2c1[nH]c(=O)n2C1CC(O)C(COP(=O)(O)OP(=O)(O)OP(=O)(O)O)O1 (stereo not shown)
Ans: 3.02

====

Target: telomerase (Homo sapiens)
Test: Telomerase extension of 32P-end labeled primers with a single dNTP (percent primer extension)
Type: biochemical
Set-up: made in house; anti-FLAG immunopurification, eluted with 3xFLAG peptide
Conditions: Primer 3; 500µM dNTP
Procedure: A chain terminating mechanism of inhibition requires that the enzyme adds the modified dNTP to a growing chain, which then blocks further synthesis. […] To test whether telomerase can incorporate other modified dNTPs, and whether the incorporation is chain terminating and/or mutagenic, we conducted direct extension assays in which we radiolabeled the primer and added increasing concentrations (5, 50, and 500 μM) of a single dNTP (Supplementary Figs. 3, 5, 6, and 7). […]
Label key: True means % Primer Extension under 8%; False means % Primer Extension of 8% or more.

Some solved cases for reference:
Compound: Nc1ncnc2c1[nH]c(=O)n2C1CC(O)C(COP(=O)(O)OP(=O)(O)OP(=O)(O)O)O1 (stereo not drawn)
Assigned Category: True
--
Compound: Cc1cn([C@H]2C[C@H](N=[N+]=[N-])[C@@H](CO)O2)c(=O)[nH]c1=O
Assigned Category: True

Q: Confirm or reject: % Primer Extension of Nc1nc(O)nc2c1ncn2C1CC(O)C(COP(=O)(O)OP(=O)(O)OP(=O)(O)O)O1 (stereo not drawn) lies strictly below 8%
Ans: False

Q: Record Cc1cn(C2CC(O)C(COP(=O)(O)OP(=O)(O)OP(=O)(O)O)O2)c(=O)[nH]c1=O (stereo not drawn) : is its % Primer Extension strictly below 8%?
Ans: False

Q: Identify whether the compound `Nc1ccn([C@H]2C[C@H](O)[C@@H](COP(=O)(O)OP(=O)(O)OP(=O)(O)O)O2)c(=O)n1` records % Primer Extension below 8%.
Ans: True
